Assay: Clinical pharmacokinetic evaluation of RIB in one patient, first day of a treatment cycle, non-compartmental analysis
Type: in vivo, human
Conditions: human, plasma, 600 mg oral dose, non-compartmental analysis, PK solver, read-out: Elimination half-life (converted)
parameterMeasured: half-life (h)
Please state the figure in h; there is no need to write the unit.

## Task Quote half-life reported for CN(C)C(=O)c1cc2cnc(Nc3ccc(N4CCNCC4)cn3)nc2n1C1CCCC1 [RIB, ribociclib] please.
## Result 31.6

---

We begin with a simple list: items and their reported Stability Bias (%) Autosampler (10 h, 10 °C).
Experiment: Stability of the analytes in plasma (bench top, autosampler, freeze-thaw, long-term)
Assay type: physicochemical, human
Settings: processed plasma sample, higher QC level (RIB 2500, ABE 1500, PAL 250, ANA 100, LET 250, FUL 500 ng/mL), N = 3
Response body: numeric value in %, unit text excluded.

## Task Check the records and state Stability Bias (%) Autosampler (10 h, 10 °C) for C[C@]12CC[C@@H]3c4ccc(O)cc4C[C@@H](CCCCCCCCC[S+]([O-])CCCC(F)(F)C(F)(F)F)[C@H]3[C@@H]1CC[C@@H]2O (stereo partly drawn)
## Result −8.06

## Task Identify Stability Bias (%) Autosampler (10 h, 10 °C) associated with the compound CC(=O)c1c(C)c2cnc(Nc3ccc(N4CCNCC4)cn3)nc2n(C2CCCC2)c1=O
## Result 14.95

## Task Give the value of Stability Bias (%) Autosampler (10 h, 10 °C) reported for the following: CC(C)(C#N)c1cc(Cn2cncn2)cc(C(C)(C)C#N)c1
## Result 4.89

// provenance: paper PMC9147789
